B1: Membrane-associated guanylate kinase, WW and PDZ domain-containing protein 2, residues 296 to 340; numbered along this chain, Q86UL8 (parent)
chain: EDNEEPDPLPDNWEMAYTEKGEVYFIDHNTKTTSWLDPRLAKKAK

- Variants of: B1
- test_summary: abundance fitness (aPCA) (normalised: wild type 0, dead -1); higher = more abundant; growth selection in yeast, the domain comes from the species named
- measurement_setup: Homo sapiens
Classification scheme (abundance fitness): range 1 = under -0.3, range 2 = from -0.3 up to -0.07, range 3 = -0.07 and over

Solved entries:
A44V :: range 3
T18N :: range 1
E19L :: range 2

## Task Field: class (abundance fitness) — entry: K42P
## Result range 3

Data provenance: the Human Domainome abundance scans (Beltran et al. 2025)
